# Assayed System: human TLR9 (Homo sapiens (Human), UniProt Q9NR96)
# Sequence (Q9NR96 26-1032): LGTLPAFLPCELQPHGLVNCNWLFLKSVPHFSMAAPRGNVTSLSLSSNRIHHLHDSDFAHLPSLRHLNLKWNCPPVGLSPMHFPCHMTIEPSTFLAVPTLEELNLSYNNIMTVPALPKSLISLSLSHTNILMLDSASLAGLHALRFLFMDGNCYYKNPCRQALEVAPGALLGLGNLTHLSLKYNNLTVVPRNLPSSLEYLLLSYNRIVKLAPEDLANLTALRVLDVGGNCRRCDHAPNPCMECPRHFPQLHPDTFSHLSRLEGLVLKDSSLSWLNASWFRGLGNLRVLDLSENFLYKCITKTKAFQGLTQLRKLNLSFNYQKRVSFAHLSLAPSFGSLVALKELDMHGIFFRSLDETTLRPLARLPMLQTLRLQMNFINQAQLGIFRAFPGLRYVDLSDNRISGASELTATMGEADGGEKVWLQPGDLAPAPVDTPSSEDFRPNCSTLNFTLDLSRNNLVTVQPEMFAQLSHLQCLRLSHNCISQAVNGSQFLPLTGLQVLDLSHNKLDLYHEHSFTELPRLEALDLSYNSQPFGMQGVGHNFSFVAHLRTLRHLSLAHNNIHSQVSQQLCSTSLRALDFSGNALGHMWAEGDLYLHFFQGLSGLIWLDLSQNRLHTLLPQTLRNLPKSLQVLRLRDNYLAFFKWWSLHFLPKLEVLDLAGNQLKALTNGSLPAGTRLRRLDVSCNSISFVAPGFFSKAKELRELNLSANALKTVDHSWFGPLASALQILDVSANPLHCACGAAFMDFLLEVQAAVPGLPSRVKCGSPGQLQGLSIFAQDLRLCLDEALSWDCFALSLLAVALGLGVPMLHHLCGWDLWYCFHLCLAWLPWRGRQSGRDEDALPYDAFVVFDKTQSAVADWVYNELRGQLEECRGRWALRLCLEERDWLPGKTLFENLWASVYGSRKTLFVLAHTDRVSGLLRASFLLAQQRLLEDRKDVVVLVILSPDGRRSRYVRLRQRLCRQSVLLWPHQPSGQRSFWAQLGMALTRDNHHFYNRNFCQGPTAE
# Experimental Details: TLR9 inhibition reporter assay (HEK-Blue SEAP)
# Condition Set: read-out: TLR9 IC50; HEK-Blue human TLR9 cells, ODN2006 5 nM
Decide using IC50 alone. Strictly below 10 µM: true (1). Equal to or above 10 µM: false (0).

These solved cases illustrate the format of a correct answer.
> print(dat)
                                   compound                            assayed.system  assigned.category
1  CCN(CC)CC(=O)N1CCN(c2ccc3[nH]c(-c4cn5ncnc5c(C)c4C)c(C(C)C)c3n2)C[C@@H]1C [Example 898]  human TLR9 (Homo sapiens (Human), UniProt Q9NR96)          false (0)
2  Cc1c(-c2[nH]c3ccc(N4C[C@@H](C)N[C@@H](C)C4)nc3c2C(C)C)cn2ncnc2c1C [Example 976]  human TLR9 (Homo sapiens (Human), UniProt Q9NR96)          false (0)
3  Cc1c(-c2[nH]c3ccc(N4C[C@H](C)N(C(=O)CN(C)C(C)(C)C)C[C@H]4C)nc3c2C(C)C)cn2ncnc2c1C [Example 939]  human TLR9 (Homo sapiens (Human), UniProt Q9NR96)          false (0)

Q: Dear colleague, could you confirm whether IC50 of Cc1c(-c2[nH]c3ccc(N4CCN(CC(=O)N(C)C)C[C@@H]4C)nc3c2C(C)C)cn2ncnc2c1C [Example 803] falls below 10 µM? Thanks.
Ans: false (0)

Q: Dear colleague, could you confirm whether IC50 of Cc1c(-c2[nH]c3ccc(N4CCN(CCC(N)=O)[C@H](C)C4)nc3c2C(C)C)cn2ncnc2c1C [Example 852] falls below 10 µM? Thanks.
Ans: false (0)

Q: Dear colleague, could you confirm whether IC50 of Cc1c(-c2[nH]c3ccc(N4CCC(N(C)CCS(C)(=O)=O)CC4)nc3c2C(C)C)cn2ncnc2c1C [Example 998] falls below 10 µM? Thanks.
Ans: false (0)

Q: Dear colleague, could you confirm whether IC50 of Cc1c(-c2[nH]c3ccc(N4[C@H](C)CNC[C@H]4C)nc3c2C(C)C)cn2ncnc2c1C [Example 861] falls below 10 µM? Thanks.
Ans: true (1)

---

Can you tell me pIC50 for the items I'm about to list?
# Assayed System: human TLR9 (Homo sapiens (Human))
# Experimental Details: TLR9 inhibition reporter assay (HEK-Blue SEAP)
# Condition Set: read-out: TLR9 IC50; HEK-Blue human TLR9 cells, ODN2006 5 nM
One number for each entry, as −log10 of the molar value.

> print(dat)
                                    molecule  recorded.number
 1  Cc1c(-c2[nH]c3ccc(N4CCC(N(C)CC(=O)N(C)C)CC4)nc3c2C(C)C)cn2ncnc2c1C [Example 997]             4.87
 2  Cc1c(-c2[nH]c3ccc(N4C[C@H]5CCC[C@H](C4)N5)nc3c2C(C)C)cn2ncnc2c1C [Example 974]             5.41
 3  Cc1c(-c2[nH]c3ccc(N4CCN(C(=O)CN(CCO)C(C)(C)C)[C@H](C)C4)nc3c2C(C)C)cn2ncnc2c1C [Example 955]             4.69
 4  CCN(C)CC(=O)N1C[C@H](C)N(c2ccc3[nH]c(-c4cn5ncnc5c(C)c4C)c(C(C)C)c3n2)C[C@H]1C [Example 893]             5.13
 5  Cc1c(-c2[nH]c3ccc(N4CCN(C(=O)CNC5CC5)C[C@@H]4C)nc3c2C(C)C)cn2ncnc2c1C [Example 826]             4.80
 6  CCN(C)CCC(=O)N1C[C@H](C)N(c2ccc3[nH]c(-c4cn5ncnc5c(C)c4C)c(C(C)C)c3n2)C[C@H]1C [Example 906]             5.11
 7  Cc1c(-c2[nH]c3ccc(N4CCN(C(=O)CN(C)C)[C@@H](C)C4)nc3c2C(C)C)cn2ncnc2c1C [Example 887]             5.09
 8  CCCCN(CC)CC(=O)N1CCN(c2ccc3[nH]c(-c4cn5ncnc5c(C)c4C)c(C(C)C)c3n2)CC1 [Example 876]             4.88
 9  Cc1c(-c2[nH]c3ccc(N4C[C@@H](C)N(C(=O)CCN(C)C(C)(C)C)C[C@@H]4C)nc3c2C(C)C)cn2ncnc2c1C [Example 914]             5.22
10  Cc1c(-c2[nH]c3ccc(N4C[C@@H](C)N(C(=O)CCN(C)C)[C@H](C)C4)nc3c2C(C)C)cn2ncnc2c1C [Example 886]             5.59

Your task in this section: give pIC50 for each listed record.
1. COc1cc(-c2[nH]c3ccc(N4CC5(CN(CC(C)(C)O)C5)C4)nc3c2C(C)C)cn2ncnc12 [Example 1021]
2. Cc1c(-c2[nH]c3ccc(N4CCN(C(=O)CN(C)CC(C)C)CC4)nc3c2C(C)C)cn2ncnc2c1C [Example 875]
3. Cc1c(-c2[nH]c3ccc(N4CCN(C(=O)CN5CC(C)(C)C5)CC4)nc3c2C(C)C)cn2ncnc2c1C [Example 915]
4. COc1cc(-c2[nH]c3ccc(C4CCC(N5CC6(CCOC6)C5)CC4)nc3c2C(C)C)cn2ncnc12 (centres unmarked) [Example 1069]

Ans:
1. 5.27
2. 4.39
3. 4.95
4. 6.13

Q: Which pIC50 value is on record for Cc1c(-c2[nH]c3ccc(N4CC5(CN(CC(C)C)C5)C4)nc3c2C(C)C)cn2ncnc2c1C [Example 1009] ?
Ans: 5.58

---

# Assayed System: human TLR8 (Homo sapiens (Human), UniProt Q9NR97)
# Sequence (Q9NR97 27-1041): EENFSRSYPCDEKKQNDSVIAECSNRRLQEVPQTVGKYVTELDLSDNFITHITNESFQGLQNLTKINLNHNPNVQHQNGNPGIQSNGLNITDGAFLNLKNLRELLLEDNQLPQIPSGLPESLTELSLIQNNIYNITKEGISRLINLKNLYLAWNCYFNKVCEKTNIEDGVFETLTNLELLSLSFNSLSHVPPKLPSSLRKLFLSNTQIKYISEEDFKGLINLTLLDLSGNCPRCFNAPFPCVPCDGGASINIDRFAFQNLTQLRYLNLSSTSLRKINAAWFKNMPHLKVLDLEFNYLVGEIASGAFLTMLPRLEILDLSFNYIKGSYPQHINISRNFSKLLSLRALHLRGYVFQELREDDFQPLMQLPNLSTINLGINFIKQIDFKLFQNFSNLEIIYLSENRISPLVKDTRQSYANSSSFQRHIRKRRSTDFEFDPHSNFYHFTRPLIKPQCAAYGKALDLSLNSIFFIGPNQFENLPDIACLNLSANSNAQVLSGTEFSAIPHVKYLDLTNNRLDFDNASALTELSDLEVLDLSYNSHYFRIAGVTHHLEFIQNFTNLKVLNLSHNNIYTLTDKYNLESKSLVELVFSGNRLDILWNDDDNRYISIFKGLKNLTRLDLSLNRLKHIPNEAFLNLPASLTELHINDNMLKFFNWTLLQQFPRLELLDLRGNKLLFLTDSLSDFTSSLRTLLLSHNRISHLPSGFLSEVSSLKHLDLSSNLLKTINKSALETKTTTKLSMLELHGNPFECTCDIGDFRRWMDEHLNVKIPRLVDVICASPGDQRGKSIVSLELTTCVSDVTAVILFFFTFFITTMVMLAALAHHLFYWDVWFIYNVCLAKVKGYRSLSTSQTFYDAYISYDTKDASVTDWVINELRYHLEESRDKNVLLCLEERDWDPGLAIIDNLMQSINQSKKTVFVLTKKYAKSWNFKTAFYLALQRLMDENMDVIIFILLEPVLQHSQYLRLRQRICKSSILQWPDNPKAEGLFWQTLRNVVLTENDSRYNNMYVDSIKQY
# Experimental Details: TLR8 inhibition reporter assay (HEK-Blue SEAP)
# Condition Set: read-out: TLR8 IC50; HEK-Blue cells overexpressing human TLR8, R848 15.9 μM stimulation, SEAP reporter
pIC50: −log10 of the molar value.
# if value of pIC50 reaches 8, tag class 1; if it stays below, tag class 0

> print(dat)
                                   compound  assigned.category
1  CC(C)c1c(-c2cc(CO)c3ncnn3c2)[nH]c2ccc(C3CCC(NC4COC4)CC3)nc12 (stereo not shown) [Example 235]            class 1
2  Cc1cc(-c2[nH]c3ccc(C4CCC(N5CC6(COC6)C5)CC4)nc3c2C(C)C)cn2ncnc12 (stereo not shown) [Example 288]            class 0
3  Cc1cnc(CNC2CCC(c3ccc4[nH]c(-c5cn(C)c6ncccc56)c(C(C)C)c4n3)CC2)cn1 (stereo not shown) [Example 207]            class 1
4  Cc1c(-c2[nH]c3ccc(C4CCC(N5CCC5)CC4)nc3c2C(C)C)cn2ncnc2c1C (stereo not shown)            class 1

Please find the next compound below.
Q: Tell me whether pIC50 is at least 8 here: `Cc1cc(-c2[nH]c3cc(F)c(C4CCNCC4)nc3c2C(C)C)cn2ncnc12`
Ans: class 0

---

Can you tell me pIC50 for the items I'm about to list?
# Assayed System: human TLR9 (Homo sapiens (Human), UniProt Q9NR96)
# Experimental Details: TLR9 inhibition reporter assay (HEK-Blue SEAP);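 also: SEAP driven by an IFN-β minimal promoter with NF-κB and AP-1 sites, read after 22 h, compounds dosed 0.05 nM–50 µM, inhibition scaled between agonist plus DMSO and reference-inhibitor wells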
# Condition Set: read-out: TLR9 IC50; HEK-Blue cells overexpressing human TLR9, ODN2006 5 nM stimulation, SEAP reporter
Give bare numbers, as −log10 of the molar value.

# count of solved cases: 5
> print(dat)
                                   compound  recorded.number
1  CCN1CCN(c2ccc3[nH]c(-c4cc(OC)c5ncnn5c4)c(C(C)C)c3n2)CC1 [Example 119]             4.85
2  Cc1c(-c2[nH]c3ccc(C4CCC(NC5COC5)CC4)nc3c2C(C)C)cn2cnnc2c1C (stereo not drawn) [Example 234]             6.36
3  COc1cc(-c2[nH]c3ccc(C4CCC(N5CCCC5)CC4)nc3c2C(C)C)cn2ncnc12 (stereo not drawn) [Example 174]             5.83
4  COCCNC1CCC(c2nc3c(C(C)C)c(-c4cc(OC)c5ncnn5c4)[nH]c3cc2C)CC1 (stereo not drawn) [Example 335]             5.72
5  Cc1c(-c2[nH]c3ccc(N4CCC(NCc5csnn5)CC4)nc3c2C(C)C)cn2ncnc2c1C [Example 56]             5.20

Your task in this section: give pIC50 for each listed record.
1. C#CCNC1CCC(c2ccc3[nH]c(-c4cn5ncnc5c(C)c4C)c(C(C)C)c3n2)CC1 (stereo not drawn) [Example 375]
2. CC(C)c1c(-c2cn(CC#N)c3ncccc23)[nH]c2ccc(C3CCC(NCCS(C)(=O)=O)CC3)nc12 (stereo not drawn) [Example 275]
3. CC(C)c1c(-c2cn(C)c3ncccc23)[nH]c2ccc(C3CCC(NC4CCOCC4)CC3)nc12 (stereo not drawn) [Example 267]
4. COc1ccc(-c2[nH]c3ccc(C4CCN(C5CCN(CC(C)C)CC5)CC4)nc3c2C)cc1OC [Example 5]

Ans:
[5.57, 6.16, 6.34, 7.43]
